target: human EP2 receptor (Homo sapiens, UniProt P43116); construct: purchased Millipore; assay: EP2 binding assay (PGE2 displacement)
Sequence (P43116 whole entry): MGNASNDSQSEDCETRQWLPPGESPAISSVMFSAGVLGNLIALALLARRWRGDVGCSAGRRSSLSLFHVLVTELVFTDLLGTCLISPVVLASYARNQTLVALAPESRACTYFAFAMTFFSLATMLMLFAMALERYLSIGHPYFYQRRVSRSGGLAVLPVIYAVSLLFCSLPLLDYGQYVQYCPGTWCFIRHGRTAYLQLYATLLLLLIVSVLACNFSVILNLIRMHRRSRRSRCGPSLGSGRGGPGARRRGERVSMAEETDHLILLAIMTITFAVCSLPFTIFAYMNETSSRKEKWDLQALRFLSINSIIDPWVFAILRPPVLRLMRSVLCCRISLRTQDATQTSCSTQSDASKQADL
pIC50: −log10 of the molar value.
readout: pIC50

smi=CN(C)C(=O)Oc1cccc(-c2cc(C(=O)Nc3cccc(/C=C/C(=O)O)c3)c3ccccc3c2)c1 readout=pIC50 reported_measurement="5.70 to 6.90"

---

target: human prostanoid receptor EP2 (Homo sapiens); construct: expressed in transfected cells; host or cells: CHO-K1 (CHOp6CreLuc-huEP2); assay: EP2 cAMP release assay in CHOp6CreLuc-huEP2 cells (CRE-luciferase readout); assay type: cell-based
Sequence (P43116 whole entry): as above
readout: EC50

compound="CN(C)C(=O)Oc1cccc(-c2cc(C(=O)Nc3cccc(/C=C/C(=O)O)c3)c3ccccc3c2)c1 [Example 23]" readout=EC50 reported_measurement="1.26 to 12.6 nM"

---

molecular target: human EP2 receptor (Homo sapiens, UniProt P43116); construct: purchased Millipore; test: EP2 binding assay (PGE2 displacement); details: recombinant human EP2 membranes, 1 nanoM [3H]-PGE2; reported as range bins; read-out: EP2 binding (PGE2 displacement) pIC50 (-log IC50) (converted)
readout: IC50

smi=O=C(O)CCc1ccc(F)c(NC(=O)c2cc(-c3cccc(F)c3)cc3ccccc23)c1 reported_measurement="1.26 to 10 nM"
smi=O=C(O)CCc1ccc(F)c(NC(=O)c2cc(-c3ccccc3F)cc3ccccc23)c1 reported_measurement="12.6 to 100 nM"
smi=O=C(O)/C=C/c1ccc(F)c(NC(=O)c2cc(-c3ccc(F)cc3)cc3ccccc23)c1 reported_measurement="1.26 to 10 nM"
smi=O=C(O)CCc1ccc(F)c(NC(=O)c2cc(-c3ccccc3)cc3ccccc23)c1 reported_measurement="12.6 to 100 nM"
smi=O=C(O)/C=C/c1cccc(NC(=O)c2cc(-c3cccc(O)c3)cc3ccccc23)c1 reported_measurement="1.26 to 10 nM"
smi=O=C(O)/C=C/c1cccc(NC(=O)c2cc(-c3cccc(N4CCNCC4)c3)cc3ccccc23)c1 reported_measurement="126 to 2000 nM"
smi=O=C(O)COc1ccc(Cl)c(NC(=O)c2cc(-c3ccccc3)cc3ccccc23)c1 reported_measurement="12.6 to 100 nM"
smi=O=C(O)/C=C/c1ccc(F)c(NC(=O)c2cc(-c3ccccc3)cc3ccccc23)c1 reported_measurement="1.26 to 10 nM"
smi=O=C(O)/C=C/c1ccc(F)c(NC(=O)c2cc(-c3ccccc3CO)cc3ccccc23)c1 reported_measurement="1.26 to 10 nM"
smi=O=C(O)CCc1cccc(NC(=O)c2cc(-c3ccccc3)cc3ccccc23)c1 reported_measurement="12.6 to 100 nM"
smi=O=C(O)/C=C/c1ccc(F)c(NC(=O)c2cc(-c3cc(O)cc(F)c3)cc3ccccc23)c1 reported_measurement="1.26 to 10 nM"
smi=O=C(O)/C=C/c1ccc(F)c(NC(=O)c2cc(-c3cccc(F)c3)cc3ccccc23)c1 reported_measurement="1.26 to 10 nM"
smi=O=C(O)/C=C/c1ccc(Cl)c(NC(=O)c2cc(-c3ccccc3)cc3ccccc23)c1 reported_measurement="1.26 to 10 nM"

---

Target: human prostanoid receptor EP2 (Homo sapiens)
Construct: expressed in transfected cells; host or cells: CHO-K1 (CHOp6CreLuc-huEP2)
Experiment: EP2 cAMP release assay in CHOp6CreLuc-huEP2 cells (CRE-luciferase readout)
Format: cell-based
Settings: CHOp6CreLuc-huEP2 cells, 4 hours at 37° C.; reported as range bins; read-out: EP2 cAMP release assay pEC50 (-log EC50) (converted)
Method: Method for Measuring cAMP Release in Human EP2 Stably Transfectant Cells: The potency and efficacy of EP2 agonists have been determined via measuring cAMP release in stably transfectant CHO-K1 cell expressing the human prostanoid receptor EP2 and luciferase enzyme regulated via a 6 times CRE (cAMP response element) containing transcriptional promoter. […] The luciferase activity was determined by addition of luciferin containing buffer and subsequent quantification of resulting luminescence. […]
readout: EC50

compound="O=C(O)/C=C/c1cccc(NC(=O)c2cc(-c3ccccc3)cc3ccccc23)c1 [Example 1]" readout=EC50 reported_measurement="0.00631 to 0.1 nM"
compound="O=C(O)COc1ccc(Cl)c(NC(=O)c2cc(-c3ccccc3)cc3ccccc23)c1 [Example 6]" readout=EC50 reported_measurement="0.00631 to 0.1 nM"
compound="O=C(O)/C=C/c1ccc(F)c(NC(=O)c2cc(-c3ccc(F)cc3)cc3ccccc23)c1 [Example 11]" readout=EC50 reported_measurement="0.126 to 1 nM"
compound="O=C(O)/C=C/c1ccc(F)c(NC(=O)c2cc(-c3ccccc3)cc3ccccc23)c1 [Example 2]" readout=EC50 reported_measurement="0.00631 to 0.1 nM"

// data source = patent US9309187B2
